System: acute pancreatitis murine model
Assay: Caerulein-induced acute pancreatitis murine model
Type: in vivo, Balb/c mice
Settings: 1st experiment; terminal pancreatic tissue; 15 mg/kg IV, Ib-010a and IVc-059a 150 mg/kg PO, Pirfenidone 40 mg/kg IV
Classify as follows. Reported Pancreas MPO activity greater than or equal to 2: MET. Reported Pancreas MPO activity below: NOT MET.

>  <Molecule>
O=C(O)c1cc(NC(=O)c2cc(O)c(C(=O)Nc3ccc(O)c(C(=O)O)c3)cc2O)ccc1O [Ic-007a]

>  <Study system>
acute pancreatitis murine model

>  <Classification>
NOT MET

$$$$
>  <Molecule>
O=C(O)c1cc(O)c(C(=O)Nc2ccccc2C(=O)O)cc1O [Ia-001a]

>  <Study system>
acute pancreatitis murine model

>  <Classification>
MET

$$$$
>  <Molecule>
O=C(O)c1cc(NC(=O)c2cc(O)c(C(=O)O)cc2O)cc(NC(=O)c2cc(O)c(C(=O)O)cc2O)c1 [Ib-010a]

>  <Study system>
acute pancreatitis murine model

>  <Classification>
NOT MET

$$$$
>  <Molecule>
Cc1ccc(=O)n(-c2ccccc2)c1 [pirfenidone, reference compound]

>  <Study system>
acute pancreatitis murine model

>  <Classification>
NOT MET

$$$$
>  <Molecule>
O=C(O)c1cc(O)c(C(=O)Nc2ccccc2-c2nnn[nH]2)cc1O [Ia-001a-Tz]

>  <Study system>
acute pancreatitis murine model

>  <Classification>
MET

$$$$
>  <Molecule>
O=C(O)c1cc(O)cc(CS(=O)(=O)Cc2cc(O)cc(C(=O)O)c2O)c1O [IVc-059a]

>  <Study system>
acute pancreatitis murine model

>  <Classification>
MET

$$$$
>  <Molecule>
O=C(O)c1cc(O)c(CN(Cc2cc(O)c(C(=O)O)cc2O)Cc2cc(O)c(C(=O)O)cc2O)cc1O [IIIc-061a]

>  <Study system>
acute pancreatitis murine model

>  <Classification>
MET

$$$$
>  <Molecule>
O=C(O)c1cc(NC(=O)c2cc(O)c(C(=O)Nc3ccccc3-c3nnn[nH]3)cc2O)ccc1O [Ic-001a-Tz/004a]

>  <Study system>
acute pancreatitis murine model

>  <Classification>
MET

$$$$

====

Below, each entry is listed alongside its reported Mean day 28 blood glucose Concentration (mmol/L) (SD).
System: STZ-induced diabetes model
Assay: STZ-induced diabetic nephropathy, kidney disease and retinopathy model (28 days treatment)
Conditions: day 28; 15 mg/kg IV, Captopril 50 mg/kg PO
Observable: Mean day 28 blood glucose Concentration (mmol/L) (SD)

>  <Compound>
O=C(O)c1cc(NC(=O)c2cc(O)c(C(=O)O)cc2O)cc(NC(=O)c2cc(O)c(C(=O)O)cc2O)c1 [Ib-010a]

>  <Experimental result>
31.1 (3.4) mmol/L

$$$$
>  <Compound>
O=C(O)c1cc(O)cc(CS(=O)(=O)Cc2cc(O)cc(C(=O)O)c2O)c1O [IVc-059a]

>  <Experimental result>
23.7 (6.6) mmol/L

$$$$
>  <Compound>
O=C(O)c1cc(O)c(C(=O)Nc2ccccc2-c2nnn[nH]2)cc1O [Ia-001a-Tz]

>  <Experimental result>
30.8 (6.2) mmol/L

$$$$
>  <Compound>
C[C@H](CS)C(=O)N1CCC[C@H]1C(=O)O [Captopril, reference compound]

>  <Experimental result>
32.2 (2.3) mmol/L

$$$$
>  <Compound>
O=C(O)c1cc(NC(=O)c2cc(O)c(C(=O)Nc3ccccc3-c3nnn[nH]3)cc2O)ccc1O [Ic-001a-Tz/004a]

>  <Experimental result>
29.6 (7.8) mmol/L

$$$$
>  <Compound>
O=C(O)c1cc(O)c(C(=O)Nc2ccccc2C(=O)O)cc1O [Ia-001a]

>  <Experimental result>
31.6 (3.8) mmol/L

$$$$

====

System: IL-17A
Test: Cytokine release after LPS induction on human whole blood: IL-17A
Format: cell-based
Settings: human whole blood, inhibition of LPS induced inflammation; read-out: IC50 IL-17A
Protocol: Aim of this in vitro method is to assess compounds effects on release of a panel of cytokines from whole blood following lipopolysaccharide (LPS) induced inflammatory reaction. Whole blood was incubated with compounds for 1 h prior to LPS induction. Cytokine levels in blood were measured using a multiplex FACS-based panel. IC50 values determined for the tested compounds expressed in microM [μM] and the values for the inhibition of cytokines were listed for each compound. […]
// reported log10(IC50) per item
Observable: log10(IC50) (log10 of the value in nM)

>  <Compound>
O=C(O)c1cc(O)c(C(=O)Nc2ccccc2-c2nnn[nH]2)cc1O [Ia-001a-Tz]

>  <log10(IC50)>
2.04

$$$$
>  <Compound>
O=C(O)c1cc(O)c(C(=O)Nc2ccccc2S(=O)(=O)O)cc1O [Ia-001c]

>  <log10(IC50)>
1.95

$$$$
>  <Compound>
O=C(O)c1cc(O)c(C(=O)Nc2ccc(-c3nnn[nH]3)cc2)cc1O [Ia-003a-Tz]

>  <log10(IC50)>
1.85

$$$$
>  <Compound>
O=C(O)c1cc(O)c(C(=O)Nc2ccccc2C(=O)O)cc1O [Ia-001a]

>  <log10(IC50)>
2.00

$$$$
>  <Compound>
O=C(O)c1cc(O)cc(CS(=O)(=O)Cc2cc(O)cc(C(=O)O)c2O)c1O [IVc-059a]

>  <log10(IC50)>
2.20

$$$$
>  <Compound>
O=C(O)c1cc(O)cc(CSCc2cc(O)cc(C(=O)O)c2O)c1O [IVc-058a]

>  <log10(IC50)>
2.00

$$$$
>  <Compound>
O=C(O)Cc1cc(O)c(C(=O)Nc2ccccc2-c2nnn[nH]2)cc1O

>  <log10(IC50)>
2.23

$$$$
>  <Compound>
O=C(O)c1ccccc1CNC(=O)c1cc(O)cc(C(=O)O)c1O [IIa-053a]

>  <log10(IC50)>
5.00

$$$$
>  <Compound>
O=C(O)c1cc(NC(=O)c2cc(O)c(C(=O)Nc3ccc(O)c(C(=O)O)c3)cc2O)ccc1O [Ic-007a]

>  <log10(IC50)>
1.60

$$$$

====

Test system: IL-33
Assay: Cytokine release after LPS induction on human whole blood: IL-33
Format: cell-based
Conditions: human whole blood, inhibition of LPS induced inflammation; read-out: IC50 IL-33
pIC50: −log10 of the molar value.
Observable: pIC50

>  <Compound>
O=C(O)c1cc(O)cc(CS(=O)(=O)Cc2cc(O)cc(C(=O)O)c2O)c1O [IVc-059a]

>  <Experimental result>
4.56

$$$$
>  <Compound>
COC(=O)c1cc(OC(C)=O)cc(CS(=O)(=O)Cc2cc(OC(C)=O)cc(C(=O)OC)c2OC(C)=O)c1OC(C)=O [IVc-059a-E2-A4]

>  <Experimental result>
4.63

$$$$
>  <Compound>
CC(=O)N(Cc1cc(O)c(C(=O)O)cc1O)Cc1cc(O)c(C(=O)O)cc1O [IIIc-057a]

>  <Experimental result>
5.53

$$$$
>  <Compound>
O=C(O)c1cc(O)ccc1NC(=O)c1cc(O)cc(C(=O)Nc2ccc(O)cc2C(=O)O)c1O [IIc-009a]

>  <Experimental result>
6.54

$$$$

====

Test system: acute pancreatitis murine model
Assay: Caerulein-induced acute pancreatitis murine model
Assay type: in vivo, Balb/c mice
Settings: 1st experiment; caerulein induced; 15 mg/kg IV, Ib-010a and IVc-059a 150 mg/kg PO, Pirfenidone 40 mg/kg IV

>  <Molecule>
O=C(O)c1cc(O)c(CN(Cc2cc(O)c(C(=O)O)cc2O)Cc2cc(O)c(C(=O)O)cc2O)cc1O [IIIc-061a]

>  <Study system>
acute pancreatitis murine model

>  <Mean terminal pancreas weight / g>
0.086

$$$$
>  <Molecule>
O=C(O)c1cc(NC(=O)c2cc(O)c(C(=O)Nc3ccc(O)c(C(=O)O)c3)cc2O)ccc1O [Ic-007a]

>  <Study system>
acute pancreatitis murine model

>  <Mean terminal pancreas weight / g>
0.109

$$$$
>  <Molecule>
Cc1ccc(=O)n(-c2ccccc2)c1 [pirfenidone, reference compound]

>  <Study system>
acute pancreatitis murine model

>  <Mean terminal pancreas weight / g>
0.136

$$$$
>  <Molecule>
O=C(O)c1cc(O)cc(CS(=O)(=O)Cc2cc(O)cc(C(=O)O)c2O)c1O [IVc-059a]

>  <Study system>
acute pancreatitis murine model

>  <Mean terminal pancreas weight / g>
0.09

$$$$

====

Measured Blood IL-6 by item
Tested on: STZ-induced diabetes model
Assay: STZ-induced diabetic nephropathy, kidney disease and retinopathy model (28 days treatment)
Conditions: day 28 of treatment (week 9); serum; 15 mg/kg IV, Captopril 50 mg/kg PO

>  <Compound>
O=C(O)c1cc(NC(=O)c2cc(O)c(C(=O)O)cc2O)cc(NC(=O)c2cc(O)c(C(=O)O)cc2O)c1 [Ib-010a]

>  <Blood IL-6>
102.72

$$$$
>  <Compound>
O=C(O)c1cc(NC(=O)c2cc(O)c(C(=O)Nc3ccccc3-c3nnn[nH]3)cc2O)ccc1O [Ic-001a-Tz/004a]

>  <Blood IL-6>
104.66

$$$$
>  <Compound>
O=C(O)c1cc(O)c(C(=O)Nc2ccccc2C(=O)O)cc1O [Ia-001a]

>  <Blood IL-6>
114.16

$$$$
>  <Compound>
O=C(O)c1cc(NC(=O)c2cc(O)c(C(=O)Nc3ccc(O)c(C(=O)O)c3)cc2O)ccc1O [Ic-007a]

>  <Blood IL-6>
109.27

$$$$
